- Tested system: T1, human IL-11 (human, UniProt P20809 22-199)
- T1 construct: bought from Invigate; also called hIL-11; hIL11
- T1 sequence: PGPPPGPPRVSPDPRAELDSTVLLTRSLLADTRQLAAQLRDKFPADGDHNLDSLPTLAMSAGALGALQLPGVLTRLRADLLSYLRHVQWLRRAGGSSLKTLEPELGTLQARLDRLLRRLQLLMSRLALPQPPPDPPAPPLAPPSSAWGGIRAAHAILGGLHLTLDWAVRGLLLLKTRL
- Assay protocol: SPR, antibody captured, IL-11 as analyte
The entries below come with measured Kd values attached.
Report the value in nM with no unit label.

TPP-19850 (antibody, V domains shown) VH: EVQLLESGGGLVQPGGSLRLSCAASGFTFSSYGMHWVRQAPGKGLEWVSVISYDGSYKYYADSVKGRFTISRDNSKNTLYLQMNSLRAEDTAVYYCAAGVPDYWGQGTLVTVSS VL: QSVLTQPPSASGTPGQRVTISCTGSSSNIGAGYDVHWYQQLPGTAPKLLIYSNNERPSGVPDRFSGSKSGTSASLAISGLRSEDEADYYCAAWDDSLSGPVFGGGTKLTVL; 6.5
TPP-19865 (antibody, V domains shown) VH: EVQLLESGGGLVQPGGSLRLSCAASGFTFSSYGMHWVRQAPGKGLEWVSVISYSGSYKYYADSVKGRFTISRDNSKNTLYLQMNSLRAEDTAVYYCAAGVPDYWGQGTLVTVSS VL: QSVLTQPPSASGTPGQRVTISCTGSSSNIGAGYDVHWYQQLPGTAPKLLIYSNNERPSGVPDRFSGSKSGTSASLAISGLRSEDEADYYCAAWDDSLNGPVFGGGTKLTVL; 25

Here's the next entry for you.
// query Look up Kd: TPP-19862 (antibody, V domains shown) VH: EVQLLESGGGLVQPGGSLRLSCAASGFTFSSYGMSWVRQAPGKGLEWVSVISYDGSYKYYADSVKGRFTISRDNSKNTLYLQMNSLRAEDTAVYYCAAGVPDYWGQGTLVTVSS VL: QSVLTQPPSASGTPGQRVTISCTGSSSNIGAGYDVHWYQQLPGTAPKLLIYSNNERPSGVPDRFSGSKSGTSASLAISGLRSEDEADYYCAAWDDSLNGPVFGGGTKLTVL
// result 19
